- Assay notes: Radioactivity distribution in mouse body after intravenous administration of radioiodine labeled forms
- Experimental context: mouse, intravenous administration, blood, 60 min after administration; mean (SD) of 3 to 5 mice
- Description: Thereafter, 100 μl (0.5 to 1 μCi) of each labeled form was intravenously administered to each group consisting of three to five 5-week-old ddY male mice (25 to 30 g). 2, 10, 30, and 60 minutes after the intravenous administration, such mice were decapitated, and blood was collected. Thereafter, organs were excised, and the weight and radioactivity thereof were then measured.
Quick list: Distribution of radioactivity, Blood per entry.

- Compound: "CNc1ccc(C=Cc2cc(=O)c3cc([125I])ccc3o2)cc1 [[125I]Compound 47]"
  Distribution of radioactivity, Blood: "1.79 (0.23) % ID/g"
- Compound: "CNc1ccc(-c2cc(=O)c3cc([125I])ccc3o2)cc1 [[125I]Compound 10]"
  Distribution of radioactivity, Blood: "1.50 (0.09) % ID/g"
- Compound: "COc1cc(/C=C/C(=O)c2cccc([125I])c2)ccc1O [[125I]Compound 31]"
  Distribution of radioactivity, Blood: "1.15 (0.44) % ID/g"
- Compound: "Nc1ccc(C=Cc2cc(=O)c3cc([125I])ccc3o2)cc1 [[125I]Compound 46]"
  Distribution of radioactivity, Blood: "2.27 (0.47) % ID/g"
- Compound: "COc1ccc(-c2cc(=O)c3cc([125I])ccc3o2)cc1 [[125I]Compound 19]"
  Distribution of radioactivity, Blood: "0.23 (0.09) % ID/g"
- Compound: "CN(C)c1ccc(C=Cc2cc(=O)c3cc([125I])ccc3o2)cc1 [[125I]Compound 48]"
  Distribution of radioactivity, Blood: "0.80 (0.21) % ID/g"
- Compound: "O=c1cc(-c2ccc(O)cc2)oc2ccc([125I])cc12 [[125I]Compound 20]"
  Distribution of radioactivity, Blood: "0.20 (0.02) % ID/g"
- Compound: "CN(C)c1ccc(-c2cc(=O)c3cc([125I])ccc3o2)cc1 [[125I]Compound 11]"
  Distribution of radioactivity, Blood: "1.15 (0.16) % ID/g"

* * *

Catalogue of Distribution of radioactivity, Blood values
- Assay notes: Radioactivity distribution in mouse body after intravenous administration of radioiodine labeled forms
- Experimental context: mouse, intravenous administration, blood, 10 min after administration; mean (SD) of 3 to 5 mice
Parameter: Distribution of radioactivity, Blood

- Molecule: "Nc1ccc(C=Cc2cc(=O)c3cc([125I])ccc3o2)cc1 [[125I]Compound 46]"
  Experimental value: "2.44 (0.19) % ID/g"
- Molecule: "O=c1cc(-c2ccc(O)cc2)oc2ccc([125I])cc12 [[125I]Compound 20]"
  Experimental value: "1.58 (0.18) % ID/g"
- Molecule: "CNc1ccc(C=Cc2cc(=O)c3cc([125I])ccc3o2)cc1 [[125I]Compound 47]"
  Experimental value: "2.44 (0.082) % ID/g"
- Molecule: "CN(C)c1ccc(-c2cc(=O)c3cc([125I])ccc3o2)cc1 [[125I]Compound 11]"
  Experimental value: "1.07 (0.08) % ID/g"
- Molecule: "COc1ccc(-c2cc(=O)c3cc([125I])ccc3o2)cc1 [[125I]Compound 19]"
  Experimental value: "1.19 (0.17) % ID/g"
- Molecule: "CN(C)c1ccc(C=Cc2cc(=O)c3cc([125I])ccc3o2)cc1 [[125I]Compound 48]"
  Experimental value: "3.50 (1.13) % ID/g"
- Molecule: "CNc1ccc(-c2cc(=O)c3cc([125I])ccc3o2)cc1 [[125I]Compound 10]"
  Experimental value: "1.39 (0.10) % ID/g"
- Molecule: "COc1cc(/C=C/C(=O)c2cccc([125I])c2)ccc1O [[125I]Compound 31]"
  Experimental value: "3.80 (0.91) % ID/g"
